Examples of compounds with documented Ki follow.
target: human recombinant 5-HT2C receptor (Homo sapiens (Human), UniProt P28335); experiment: 5-HT2C receptor binding inhibition test ([3H]-Mesulergine); conditions: Jump-In HEK cell membrane, 37° C. 2 hours, read-out: h-5-HT2C Ki
Sequence (P28335 33-458): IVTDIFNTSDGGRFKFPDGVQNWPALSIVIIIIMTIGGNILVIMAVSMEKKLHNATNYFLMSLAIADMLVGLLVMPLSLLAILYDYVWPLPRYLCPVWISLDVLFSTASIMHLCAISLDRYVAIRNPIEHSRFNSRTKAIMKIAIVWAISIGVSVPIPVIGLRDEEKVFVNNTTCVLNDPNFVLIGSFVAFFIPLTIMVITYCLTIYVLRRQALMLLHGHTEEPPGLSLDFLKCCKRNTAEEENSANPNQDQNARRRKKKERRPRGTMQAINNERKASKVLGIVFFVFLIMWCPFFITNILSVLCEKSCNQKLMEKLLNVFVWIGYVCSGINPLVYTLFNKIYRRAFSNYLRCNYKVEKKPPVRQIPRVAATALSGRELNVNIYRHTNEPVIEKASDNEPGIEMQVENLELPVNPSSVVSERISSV
property name: Ki

- CC(C)COc1ccc(CN(Cc2ccn(C)n2)C2=NC(=O)C3(CCN(C)CC34CC4)N2)cc1 (racemic): 10 to 100 nM
- Cc1nc(CN(Cc2ccc(OCC(F)(F)F)cc2)C2=NOC3(CCN(C)CC3)N2)co1: < 10 nM
- CCCOc1ccc(CC2=NOC3(CCN(C)CC3)N2Cc2ccc(F)cn2)cc1: 10 to 100 nM
- COc1ccc(CN(Cc2coc(C)n2)C2=NOC3(CCN(C)CC3)N2)cn1: 10 to 100 nM
- CC(C)COc1ccc(CN(Cc2ccn(C(F)F)n2)C2=NOC3(CCN(C)CC3)N2)cc1: 10 to 100 nM
- CC(C)COc1ccc(CN(Cc2cnn(C)c2)C2=NOC3(CCN(C)CC3)N2)cc1: 100 to 500 nM
- Cc1nc(CN(Cc2nc3ccccc3o2)C2=NOC3(CCN(C)CC3)N2)co1: 10 to 100 nM
- Cc1nc(CN(Cc2cccs2)C2=NOC3(CCN(C)CC3)N2)co1: < 10 nM

---

biological target: human recombinant 5-HT2C receptor (Homo sapiens (Human), UniProt P28335); assay: 5-HT2C receptor binding inhibition test ([3H]-Mesulergine); settings: Jump-In HEK cell membrane, 37° C. 2 hours, read-out: h-5-HT2C Ki
Consider the following compounds and their measured Ki readings.
property name: Ki

* CC(C)COc1ccc(CN(Cc2ccc(F)cc2)C2=NC(=O)C3(CCN(C)CC3)N2)cc1 [Compound I-021] | 10 to 100 nM
* CC(C)COc1ccc(CN(Cc2cocn2)C2=NOC3(CCN(C)CC3)N2)cc1 [Compound I-031] | 10 to 100 nM
* Cc1nc(CN(Cc2ccc(OCC(C)C)cc2)C2=NOC3(CCN(C)CC3)N2)no1 [Compound I-018] | < 10 nM
* CC(C)COc1ccc(CN(Cc2ccc(F)cc2)C2=NC3(CCN(C)CC3)CO2)cc1 [Compound I-020] | 100 to 500 nM
* Cc1nc(CN(Cc2ccc(OCC(C)C)cc2)C2=NC3(CCN(C)CC3)ON2C)co1 [Compound I-052] | 100 to 500 nM
* CCCCOc1ccc(CN(Cc2cnn(C)n2)C2=NOC3(CCN(C)CC3)N2)cc1F [Compound I-111] | < 10 nM
* CC(C)COc1ccc(CN(Cc2ccn(C)n2)C2=NOC3(CCNCC3)N2)cc1 [Compound I-036] | < 10 nM
* COc1ccc(CC2=NOC3(CCN(C)CC34CC4)N2Cc2cc(C)n(C)n2)cc1 (racemic) [Compound I-034] | 10 to 100 nM

---

target: human recombinant 5-HT2C receptor (Homo sapiens (Human), UniProt P28335); assay: 5-HT2C receptor binding inhibition test ([3H]-Mesulergine); conditions: Jump-In HEK cell membrane, 37° C. 2 hours, read-out: h-5-HT2C Ki
property name: Ki

- CC(C)COc1ccc(CN(Cc2coc(CF)n2)C2=NOC3(CCN(C)CC3)N2)cc1: < 10 nM
- Cc1nc(CN(Cc2csc3ccccc23)C2=NOC3(CCN(C)CC3)N2)co1: < 10 nM
- CCCCOc1ccc(CN(Cc2coc(C)n2)C2=NOC3(CCN(C)CC3)N2)cc1: < 10 nM
- Cc1nc(CN(Cc2nc3ccccc3s2)C2=NOC3(CCN(C)CC3)N2)co1: 10 to 100 nM

The values you see were collected from patent US20250026765A1.
